pIC50: −log10 of the molar value.
// KAT6A (Homo sapiens, UniProt Q92794) pIC50 records

COMPOUND: CC(=O)N1CCOC(CS(=O)(=O)NNC(=O)c2cc(-c3ccccc3)cc(C)c2F)C1 (stereo not drawn)
SYSTEM UNDER TEST: KAT6A (Homo sapiens, UniProt Q92794)
Sequence (Q92794 with tags, fused parts or gaps): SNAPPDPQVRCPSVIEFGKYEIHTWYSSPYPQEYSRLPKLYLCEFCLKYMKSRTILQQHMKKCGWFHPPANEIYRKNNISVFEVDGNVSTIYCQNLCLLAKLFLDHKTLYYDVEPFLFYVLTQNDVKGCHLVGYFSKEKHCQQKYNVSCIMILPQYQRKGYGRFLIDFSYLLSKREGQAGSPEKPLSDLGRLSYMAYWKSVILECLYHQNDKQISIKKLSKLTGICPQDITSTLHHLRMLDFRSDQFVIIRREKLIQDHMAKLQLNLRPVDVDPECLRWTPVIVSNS
RECORDED MEASUREMENT: ≥ 5.00
//
COMPOUND: Cc1cc(-c2cccc(Cl)c2)cc(C(=O)NNS(=O)(=O)C2CCCCC2)c1F
SYSTEM UNDER TEST: KAT6A (Homo sapiens, UniProt Q92794)
RECORDED MEASUREMENT: 4.30 to 5.00
//
COMPOUND: CCc1cc(-c2ccccc2)cc(C(=O)NNS(=O)(=O)c2ccccc2)c1F
SYSTEM UNDER TEST: KAT6A (Homo sapiens, UniProt Q92794)
RECORDED MEASUREMENT: ≥ 5.00

Items follow; give pIC50 for each.
1. Cc1cc(-c2ccccc2)cc(C(=O)NNS(=O)(=O)CC2CCCN(C(=O)C(C)C)C2)c1F (stereo not drawn)
2. CNC(=O)Cn1cc(F)c(C(=O)NNS(=O)(=O)C2CCCCC2)n1
3. Cc1c(-c2ccccc2)ccc(F)c1C(=O)NNC(=O)c1ccccc1

Result:
≥ 5.00
< 4.00
< 4.00

====

- SYSTEM UNDER TEST: KAT6A (Homo sapiens)
pIC50: −log10 of the molar value.
MEASUREMENT LABEL: pIC50

// solved cases for pIC50 follow
COMPOUND: O=C(NNS(=O)(=O)c1ccccc1)c1c(F)cccc1F
RECORDED MEASUREMENT: 4.30 to 5.00

COMPOUND: Cc1cccc(-c2cc(Cl)c(F)c(C(=O)NNS(=O)(=O)CC3CCCNC3)c2)c1 (stereo not drawn)
RECORDED MEASUREMENT: < 4.00

COMPOUND: Cc1cc(-c2ccccc2)cc(C(=O)NCCS(=O)(=O)Nc2ccccc2)c1F
RECORDED MEASUREMENT: 4.30 to 5.00

COMPOUND: O=C(NNS(=O)(=O)c1ccccc1)c1c(F)ccc(-c2cnc[nH]2)c1F
RECORDED MEASUREMENT: 4.30 to 5.00

COMPOUND: COc1cccc(-c2cc(C)c(F)c(C(=O)NNS(=O)(=O)C3CCCCC3)c2)c1
RECORDED MEASUREMENT: 4.30 to 5.00

Items follow; give pIC50 for each.
1. O=S(=O)(Nc1ncc(-c2ccccc2F)[nH]1)c1ccccc1
2. O=C(NNS(=O)(=O)c1ccccc1)N1CCCCC1
3. CNC(=O)c1ccc(S(=O)(=O)NNC(=O)c2cc(-c3ccccc3)cc(C)c2F)cc1
4. CNCCC(=O)N1CCCC(CS(=O)(=O)NNC(=O)c2cc(-c3cccc(F)c3)cc(C)c2F)C1 (stereo not drawn)
5. Cc1cc(-c2ccccc2)cc(C(=O)NNS(=O)(=O)c2ccc(O)cc2)c1F

Result:
["< 4.00", "< 4.00", "≥ 5.00", "4.30 to 5.00", "≥ 5.00"]

Items follow; give pIC50 for each.
1. Cc1cc(-c2ccccc2)cc(C(=O)NS(=O)(=O)N2CCCC2)c1F
2. CC(C)C(Cc1ccccc1)CS(=O)(=O)NNC(=O)c1ccccc1 (stereo not drawn)
3. COc1ccccc1-c1cc(C)c(F)c(C(=O)NNS(=O)(=O)C2CCCCC2)c1
4. Cc1cc(-c2cc(F)cc(F)c2)cc(C(=O)NNS(=O)(=O)c2ccccc2)c1F
5. Cc1ccccc1C(=O)NNS(=O)(=O)c1ccccc1

Result:
1. < 4.00
2. < 4.00
3. 4.00 to 4.30
4. ≥ 5.00
5. < 4.00

====

- SYSTEM UNDER TEST: KAT6A (Homo sapiens)
pIC50: −log10 of the molar value.
Exercise: for every item that follows, state its recorded pIC50.

// solved cases for pIC50 follow
COMPOUND: CCC(=O)N1CCC(S(=O)(=O)NNC(=O)c2cc(-c3ccccc3)cc(C)c2F)C1 (stereo not shown)
pIC50: 4.30 to 5.00
--
COMPOUND: Cc1cc(-c2ccccc2)cc(C(=O)NNS(=O)(=O)c2cccc(CO)c2)c1F
pIC50: ≥ 5.00
--
COMPOUND: Cc1cc(-c2ccccc2)cc(C(=O)NNS(=O)(=O)C(C)C2CCCCC2)c1F (stereo not shown)
pIC50: ≥ 5.00

In the following, a different compound is considered.
Query: Give its pIC50 value. Item: Cc1cc(-c2ccccc2)cc(C(=O)NNS(=O)(=O)CC2CN(C(=O)OC(C)(C)C)CCO2)c1F (stereo not shown)
Result: ≥ 5.00

====

// KAT6A (Homo sapiens) IC50 records

// solved cases for IC50 follow
SMILES REPR: O=C(NNS(=O)(=O)C1CCCCC1)c1c(Cl)ccc(Cl)c1F
IC50: > 100 µM

SMILES REPR: Cn1cnc2c(C(=O)NNS(=O)(=O)C3CCCCC3)cc(-c3ccccc3)cc21
IC50: > 100 µM

SMILES REPR: COc1ccccc1-c1cc(C)c(F)c(C(=O)NNS(=O)(=O)CC2CCCCC2)c1
IC50: > 100 µM

SMILES REPR: Cc1cc(-c2cccc(Cl)c2)cc(C(=O)NNS(=O)(=O)c2ccccc2)c1F
IC50: ≤ 10 µM

Query: Give its IC50 value. Item: COc1cc(F)cc(-c2cc(Cl)c(F)c(C(=O)NNS(=O)(=O)C3CCCCC3)c2)c1
Result: 10 to 50 µM

====

- SYSTEM UNDER TEST: KAT6A (Homo sapiens)
- Construct: His-TEV tag (N, cleaved yes); made in house
- ASSAY DETAILS: KAT6A enzyme inhibition assay (SAMDI mass spectrometry)
- Type: biochemical
- CONDITION DESCRIPTION: His-TEV-KAT6A 501-784 enzyme construct
pIC50: −log10 of the molar value.
Exercise: for every item that follows, state its recorded pIC50.

MOLECULE: COc1cc(C)c(F)c(C(=O)NNS(=O)(=O)C2CCCCC2)c1 [Compound I-391]
RECORDED MEASUREMENT: < 4.00

MOLECULE: O=C(NNS(=O)(=O)c1cccc(Cl)c1)c1c(F)ccc(Cl)c1F [Compound I-198]
RECORDED MEASUREMENT: ≥ 5.00

Items follow; give pIC50 for each.
1. CC(=O)N1CCCC(CS(=O)(=O)NNC(=O)c2cc(-c3ccccc3)cc(C)c2F)C1 (stereo not shown) [Compound I-322]
2. O=C(NNS(=O)(=O)c1ccccc1)c1c(F)ccc(-c2ccccn2)c1F [Compound I-132]
3. Cc1cc(-c2ccccc2)cc(C(=O)NNS(=O)(=O)c2cccc(Cl)c2)c1F [Compound I-187]
4. O=C(NNS(=O)(=O)C1CCCCC1)c1c(F)c(-c2ccccc2)cc2nc[nH]c12 [Compound I-467]
5. O=C(NNS(=O)(=O)C1CCN(C(=O)C2CCC2)CC1)c1cc(Cl)cc(Cl)c1F [Compound I-436]
6. Cc1cc(-c2ccccc2)cc(C(=O)NNS(=O)(=O)c2ccccn2)c1F [Compound I-209]
7. O=C(NNS(=O)(=O)c1ccccc1)c1c(F)cccc1-c1ccccc1 [Compound I-354]
8. CNC(=O)c1cccc(-c2cc(C)c(F)c(C(=O)NNS(=O)(=O)CC3CCCCC3)c2)c1 [Compound I-433]

Result:
≥ 5.00
≥ 5.00
≥ 5.00
< 4.00
< 4.00
≥ 5.00
< 4.00
4.30 to 5.00

Items follow; give pIC50 for each.
1. O=S(=O)(NNCc1ccccc1F)c1ccccc1 [Compound I-245]
2. COc1ccc(Cn2cnc3c(C(=O)NNS(=O)(=O)c4ccccc4)cc(-c4ccccc4)cc32)cc1 [Compound I-248]
3. Cc1cccc(-c2cc(Cl)c(F)c(C(=O)NNS(=O)(=O)CC3CCCN(C(=O)C4CCC4)C3)c2)c1 (stereo not shown) [Compound I-512]
4. Cc1nn(C)c(C(=O)NNS(=O)(=O)C2CCCCC2)c1F [Compound I-469]
5. Cc1cc(-c2cccc(C(=O)O)c2)cc(C(=O)NNS(=O)(=O)C2CCCCC2)c1F [Compound I-444]
6. COCCNC(=O)c1cccc(-c2cc(C)c(F)c(C(=O)NNS(=O)(=O)CC3CCCCC3)c2)c1 [Compound I-447]
7. Cc1cc(-c2ccccc2)cc(C(=O)NCc2cc[nH]n2)c1F [Compound I-173]

Result:
["< 4.00", "4.30 to 5.00", "< 4.00", "< 4.00", "≥ 5.00", "4.30 to 5.00", "< 4.00"]

Items follow; give pIC50 for each.
1. Cc1cc(-c2ccccc2)cc(C(=O)NNS(=O)(=O)c2cccc(C(=O)N(C)C)c2)c1F [Compound I-255]
2. Cc1c(-c2ccccc2)ccc(F)c1C(=O)NNS(=O)(=O)c1ccccc1Cl [Compound I-225]
3. COCC(=O)N1CCC(CS(=O)(=O)NNC(=O)c2cc(-c3ccccc3)cc(C)c2F)CC1 [Compound I-344]
4. Cc1cc(-c2ccccc2)cc(C(=O)NNCC(F)(F)F)c1F [Compound I-476]

Result:
≥ 5.00
4.30 to 5.00
≥ 5.00
< 4.00

src = patent US20220267260A1
